Property: pIC50; scope: individual compounds
- Study Target: KRAS G12D (Homo sapiens (Human), UniProt P01116+P62937, G12D)
- Sequence (P01116-2 other isoform, or with tags, fused parts or gaps G12D): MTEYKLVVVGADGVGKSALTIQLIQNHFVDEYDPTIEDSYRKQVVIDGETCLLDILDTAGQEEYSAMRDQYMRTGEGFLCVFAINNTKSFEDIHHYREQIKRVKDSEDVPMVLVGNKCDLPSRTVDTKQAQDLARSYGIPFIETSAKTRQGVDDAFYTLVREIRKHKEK
- Sequence (P62937 whole entry): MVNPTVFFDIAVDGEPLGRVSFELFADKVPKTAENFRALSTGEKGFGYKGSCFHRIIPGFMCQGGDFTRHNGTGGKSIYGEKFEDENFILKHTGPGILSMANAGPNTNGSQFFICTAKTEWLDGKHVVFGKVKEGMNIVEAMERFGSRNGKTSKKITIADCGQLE
- Protocol Description: Ras-Raf (BRAF RBD) disruption / FRET / MOA assay, KRAS G12D
- Assay type: biochemical
- Settings: Ras-Raf disruption/FRET/MOA assay; class symbols; read-out: KRAS G12D FRET data IC50
- Method: The purpose of this biochemical assay is to measure the ability of test compounds to facilitate ternary complex formation between a nucleotide-loaded Ras isoform and cyclophilin A; the resulting ternary complex disrupts binding to a BRAF^RBD construct, inhibiting Ras signaling through a RAF effector. Compound is present in plate wells as a 10-point 3-fold dilution series starting at a final concentration of 30 μM. […]
pIC50: −log10 of the molar value.

Some compounds with recorded pIC50:
CCn1c(-c2cccnc2[C@H](C)OC)c2c3cc(ccc31)-c1cc(O)cc(c1)C[C@H](NC(=O)[C@H](C(C)C)N(C)C(=O)[C@H]1CCN(C(=O)C#CC3(N(C)C)COC3)C1)C(=O)N1CCC[C@H](N1)C(=O)OCC(C)(C)C2 [Example A337]; 5.00 to 6.00
C=CC(=O)N1CCO[C@@]2(CCN(C(=O)N(C)[C@H](C(=O)N[C@H]3Cc4nc(cs4)-c4ccc5c(c4)c(c(-c4cccnc4[C@H](C)OC)n5CC(F)(F)F)CC(C)(C)COC(=O)[C@@H]4CCCN(N4)C3=O)C(C)C)C2)C1 (atropisomer, axis not shown) [Example A594]; 6.00 to 7.00
C=CC(=O)N1CC[C@H](C(=O)N(C)[C@H](C(=O)N[C@H]2Cc3cc(O)cc(c3)-c3ccc4c(c3)c(c(-c3ccccc3[C@@H](C)OC)n4CC)CC(C)(C)COC(=O)[C@@H]3CCCN(N3)C2=O)C(C)C)C1 [Example A029]; 5.00 to 6.00
C=CC(=O)N1CCN(C(=O)N(C)[C@H](C(=O)N[C@H]2Cc3cc(O)cc(c3)-c3ccc4c(c3)c(c(-c3ccccc3CCOC)n4CC)CC(C)(C)COC(=O)[C@@H]3CCCN(N3)C2=O)C(C)C)C[C@@H]1COC [Example A125]; < 5.00
C=CC(=O)N1CC[C@H](C(=O)N(C)[C@H](C(=O)N[C@H]2Cc3cc(O)cc(c3)-c3ccc4c(c3)c(c(-c3ccc(CN5CCCC5)cc3)n4CC)CC(C)(C)COC(=O)[C@@H]3CCCN(N3)C2=O)C(C)C)C1 [Example A010]; < 5.00

-- ask Supply recorded pIC50 for C=CC(=O)N1CC[C@H](C(=O)N(C)[C@H](C(=O)N[C@H]2Cc3cc(O)cc(c3)-c3ccc4c(c3)c(c(-c3cnn5c3[C@@H](OC)CCC5)n4CC)CC(C)(C)COC(=O)[C@@H]3CCCN(N3)C2=O)C(C)C)C1 [Example A333] here.
-- reply 6.00 to 7.00

-- ask Please look at this compound and report its pIC50: C=CC(=O)N1CC[C@@]2(CCN2C(=O)N(C)[C@H](C(=O)N[C@H]2Cc3nc(cs3)-c3ccc4c(c3)c(c(-c3cccnc3[C@H](C)OC)n4CC)CC(C)(C)COC(=O)[C@@H]3CCCN(N3)C2=O)C(C)C)C1 (atropisomer, axis not shown) [Example A661]
-- reply 5.00 to 6.00

-- ask Given CCn1c(-c2cnccc2COC)c2c3cc(ccc31)-c1ccnc(c1)C[C@H](NC(=O)[C@H](C(C)C)N(C)C(=O)[C@H]1CCN(C(=O)C#CCN(C)C)C1)C(=O)N1CCC[C@H](N1)C(=O)OCC(C)(C)C2 [Example A130] , respond with its pIC50.
-- reply 5.00 to 6.00
